Read-out: Vascular endothelial growth factor receptor 2 (Homo sapiens)
Assay: BSK_4H_VEGFRII: BioMAP Diversity Plus: 4H Assay for Vascular endothelial growth factor receptor 2 (VEGFR2) Biomarker Activity (AID 2283031)
Conditions: primary human endothelial cells (HUVEC); actives raise or lower the signal
Calls of active or inactive are those of the source. How the source made its calls: active means hit-call score of the fitted dose curve at least 0.9, where 1 is the maximum; inactive means score below 0.9.
Write down one outcome, taken from 1 (yes) (active), 0 (no) (inactive)

These recorded examples may help you get a feel for the data.
> print(dat)
                                   molecule  class.label
1  ClC1(Cl)C2(Cl)C3(Cl)C4(Cl)C(Cl)(Cl)C5(Cl)C3(Cl)C1(Cl)C5(Cl)C24Cl (stereo unspecified)       0 (no)
2  COC(=O)c1sccc1S(=O)(=O)NC(=O)Nc1nc(C)nc(OC)n1       0 (no)
3                      Oc1ccc(-c2ccccc2)cc1       0 (no)
4         COC[C@H](C)N(C(=O)CCl)c1c(C)csc1C       0 (no)
5  CC(C)(c1ccccc1)c1ccc(O)c(C(C)(C)c2ccccc2)c1      1 (yes)

Now consider a different molecule.
Ask: Recorded test outcome, item `CCN1CCC2(CC1)COc1cc3c(cc12)N(C(=O)c1ccc(-c2ccc(-c4nnc(C)o4)cc2C)cc1)CC3`
Reply: 0 (no)

# credit: PubChem BioAssay (EPA / NIEHS)
